- System: MS2 coat protein
- ASSAY DETAILS: apparent KD of MS2 coat protein; designed switch direction (-1 OFF switch, 1 ON switch): -1; higher = weaker reporter binding
- STUDY CONDITIONS: input ligand: none
REPORTED METRIC: apparent KD of MS2 coat protein (nM)
Only the number, expressed in nM, is required.

Some sequences with recorded apparent KD of MS2 coat protein:
SEQ TEXT	apparent KD of MS2 coat protein / nM
GCACUCUUGUGAGGAUAUCGUUAAGGGACUUAACGAGAAGGUACAUGAGGAUCACCCAUGUGGAUCCUCCCGUUUGGAUCACUU [Eternabot solution 3] (Eterna round: R96, puzzle: Exclusion NG 1)	112
CUAAACGCAGGAUAUACAUGAGGAUCACCCAUGUUUGGCCAGUAAACAAGUCGUCUUAGUAGAAGGGCGUUUAG [Eternabot (Original) Solution 42] (Eterna round: R97, puzzle: Exclusion 3)	40.1

Prompt line: Fill blank: measured apparent KD of MS2 coat protein of the sequence UGUAGUUCAGGAUAUGAUGUUUAAUACAUGAGGAUCACCCAUGUAGAUCCUGAAUUUACAUCAGAAGGGAAUAUUU [JL-ex5-4.57 Brourd mod] (Eterna round: R97, puzzle: Exclusion 5) is ____.
Response line: 14.9

----------
- System: MS2 coat protein
- ASSAY DETAILS: apparent KD of MS2 coat protein; designed switch direction (-1 OFF switch, 1 ON switch): -1; higher = weaker reporter binding
- STUDY CONDITIONS: Eterna round: R95; input ligand: FMN 200 uM
Each entry below carries its reported apparent KD of MS2 coat protein.
Please make sure the unit comes right after the number.

Some sequences with recorded apparent KD of MS2 coat protein:
SEQ TEXT	apparent KD of MS2 coat protein
GAAAAGGUAGGAUAUACGAAAAGAAAGGGUAGAGAAGAAACACAUGAGGAUCACCCAUGUAGAAGGACCAAAAG [salish99_ex2_r3_098] (puzzle: Exclusion 2)	0.0964 µM
UUUAUAAUUUCAAUCUUCGCUGGCGAACUUACGCCAGCCACAUGAGGAUCACCCAUGUUUUUUGUUCGUUUUAUUCU [Gelaoren] (puzzle: Sensor v3, turn-off variant 2)	0.0195 µM

Let us examine a further case.
Prompt line: Fill blank: measured apparent KD of MS2 coat protein of the sequence UUGGAUAUCUAUGGGAGUAACAUGAGGAUCACCCAUGUAUGUCUUGUUUUUUGUUCGUCAUAGGCCAUUUGAUUGGA [JR_SV3TOV1_Sub025] (puzzle: Sensor v3, turn-off variant 1) is ____.
Response line: 0.0788 µM

----------
- Test system: K4 kissing-loop RNA reporter;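 further: bound reporter read as fluorescence of individual clusters on recovered sequencing chips by microscopy, with normalized cluster intensities fitted with a binding model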
- ASSAY DETAILS: apparent KD of K4 kissing-loop reporter; higher = weaker reporter binding
- STUDY CONDITIONS: Eterna round: R107; input ligand: arginine 13.2 mM
Assign fulfilled whenever apparent KD of K4 kissing-loop reporter does not fall below 200 nM; assign not fulfilled whenever it does.

SEQ TEXT	CATEGORY LABEL
UGGAUAUAGUGAUGUUAUAUAGAGAUUGAUACCAGUUAAGAGAAUAGCCCUUGGCAGCAGAAAGAAGUAUCAUUAGAGAAGAAUG [ExTheophyl.Ac]	not fulfilled
UGUCAUUGGUCGGCCGCCACUAGGACCGGGUAUAACCUAGUGAUGUUAGUAAAUACGGCCGCCACUAGGACCGGGACCGAUGACU [KL-SSTryp-B18 #DoubleAptamer]	fulfilled
CCAUCGCUAUUCGAUACCAGUCAUAAAAUCUUUGGUUUAAUAAAGGAGUGAUGUUCCCAAGACCCUUGGCAGCGAAUAGUGAUGG [Theophylline B K4 8]	not fulfilled

Prompt line: Check if apparent KD of K4 kissing-loop reporter >= 200 nM (inclusive). Item: "UGGAGUUGACGAAAAGUCAACUCCGGAGAAGGAGCGGACGAAAGUCCAGGUAGGUCGCUCCCUACCAGUGAUGUUGGUACUGAAA"
Response line: fulfilled

Prompt line: Repeat with GAAGGUCAAAGACCUUCGUGCACACCUGAUACCAGUCGCGAAAGCGACCCUUGGCAGCAGGGCAGUGAUGUUGCCAGUGCACAAA [Omei KL Theo A SS A v5]
Response line: not fulfilled

Prompt line: Repeat with CUGGUUCAGUGAUGUUGGAAGGUUUAGGUGAAGGAUAUAUUGCAUAAUAGAAGGUCACGGCCAUGCAAUUAUUAACGUAGCCUGU [theeternabot_exclusion_KL_FMN_A_3]
Response line: not fulfilled

Prompt line: Repeat with UGUAUGUGAUUUGAUACCAGACAAGCAGGUGUGACAAGAGUGAUGUUCUUGAUGGUUUGGGUCCCUUGGCAGCAAAUCGCAUACU [KL-SSTheoB16]
Response line: not fulfilled

Prompt line: Repeat with AUUCUAUUGUGAAGGAGCGCGUAUAGUAGUGAUGUUACUAUAAUAAUAGAUAUUUAAUUCUCGCAGGUAGGUCGCACAAUAUAUA [JR_Nu_ExcArginiB_Sub025]
Response line: not fulfilled

----------
Each entry below carries its reported apparent KD of MS2 coat protein.
- Tested on: MS2 coat protein
- ASSAY DETAILS: apparent KD of MS2 coat protein, switch ON state; designed switch direction (-1 OFF switch, 1 ON switch): 1; higher = weaker reporter binding
- STUDY CONDITIONS: FMN input: 0 or 200 uM; Eterna round: R93 (includes R88 designs)
Only the number, expressed in nM, is required.

Some sequences with recorded apparent KD of MS2 coat protein:
SEQ TEXT	NUMBER
AAAGACACGGUGCAGGAUAUAGUAAUAGUCACAUGAGGAUCACCCAUGUUCUUUUAUAAGAACGAUUAGAAGGGCGGUGAAAAAA [SameState2 Malc#10]	182
AAAAAAAAAGUAUAGGAUAUCCGAGUGGUAACAUGAGGAUCACCCAUGUGAAGAAAGGAAGAUGAGGAGAAGGAUACAAAAAAAAA [Mod of Mat of Nando]	27.9

Prompt line: Fill blank: measured apparent KD of MS2 coat protein of the sequence GAAGACGUAGGAUAGGAUAUGUGAAUAAUUACAUGAGGAUCACCCAUGUCCAUUUAUAUGGGAACAUAGAAGGGUUUUCGUUAUC [SameState2 Malc#9] is ____.
Response line: 341

----------
- Tested on: MS2 coat protein
- ASSAY DETAILS: apparent KD of MS2 coat protein; designed switch direction (-1 OFF switch, 1 ON switch): -1; higher = weaker reporter binding
- STUDY CONDITIONS: input ligand: FMN 200 uM
Each entry below carries its reported apparent KD of MS2 coat protein.
Only the number, expressed in nM, is required.

SEQ TEXT	UNIT ANNOTATION	apparent KD of MS2 coat protein
GUUAUCGCAGGAUAUUAGUACUUGUACAUGAGGAUCACCCAUGUUUAUUGGGACUAAGAAUAAGAAGGGCGAUGAA [JR_Ex5_Sub004] (Eterna round: R97, puzzle: Exclusion 5)	nM	21

Prompt line: Recall the recorded apparent KD of MS2 coat protein for GAUCCUUUGACGGACGUCUCGAAACAUGAGGAUCACCCAUGUGAGGAUAUCUCCGAGAGGUCGGCAGAGAAGGCACAUGAACAA [MOD3 Eternabot solution 19 score 84.66] (Eterna round: R96, puzzle: Exclusion NG 3) with MS2 coat protein and state it.
Response line: 123

Prompt line: Repeat with UGUAACCGAGGAUAUACAUGAGGAUCACCCAUGUAAUGUAGUAUAGUGUAUGUAAGAUGUAGAAGGUGGGAUGU (Eterna round: R97, puzzle: Exclusion 3)
Response line: 40.2

Prompt line: Repeat with GCGGGUUUUUUGUUCGUUUACAUGAGGAUCACCCAUGUGUCUUCGCGUUCGGGUUCGGGCGGGCUUGGGCUUGGGCG [-26.2, -50.6, A 8%] (Eterna round: R97, puzzle: Sensor, turn-off variant 1)
Response line: 47.4

Prompt line: Repeat with GUCGUGUUAGGAUAUGGCAACGGCUAGUAAACUAGUUGUUGUUAGAAGGAACAUGAGGAUCACCCAUGUAUGAC [-24.6, -24.1 kcal, A 30%] (Eterna round: R97, puzzle: Exclusion 4)
Response line: 98.1

----------
- System: MS2 coat protein
- ASSAY DETAILS: apparent KD of MS2 coat protein; designed switch direction (-1 OFF switch, 1 ON switch): -1; higher = weaker reporter binding
- STUDY CONDITIONS: Eterna round: R95; input ligand: microRNA oligo, concentration not stated
REPORTED METRIC: apparent KD of MS2 coat protein (nM)
Only the number, expressed in nM, is required.

Some sequences with recorded apparent KD of MS2 coat protein:
SEQ TEXT	apparent KD of MS2 coat protein, nM
AGCCAAGCAGGAUAUGCCCGGGAUAACAUGAGGAUCACCCAUGUGACCGAUUGAUGUCCUGCAGAAGGGCUUGGGA [Erxesoan] (puzzle: Exclusion 5)	15.8
GCACGGUAAGUGAGGAUAUACCUCUGGAUACAGAGGUAGAAGGCACAUGAGGAUCACCCAUGUUCAAGCCGUGC [Fiskers BMX 4 - 85] (puzzle: Brourd's mod of Exclusion 4)	13.2
GAAGAGACAGGAUAUACAUGAGGAUCACCCAUGUGAGUAUGUUGGAGGCGGAGGAGAUGUAGAAGGGUCAAAGA [JR_Exclu3_Sub018] (puzzle: Exclusion 3)	23.9

Prompt line: Fill blank: measured apparent KD of MS2 coat protein of the sequence GCGAAAGCAAACAAGUGAAACAUGAGGAUCACCCAUGUCCUCAUUUGCUCGUCUUAUAAGCUAUGCGAAAGCAUAGC [Sensor 3, v1 - 6] (puzzle: Sensor v3, turn-off variant 1) is ____.
Response line: 269

Prompt line: Repeat with UUAUACGUUGAGGAUAUGCGAAUAAGUAUAGUUGCAGAAGGCGAUACAUGAGGAUCACCCAUGUUCAUGGACAU [LRO-Ex6-04] (puzzle: Exclusion 6)
Response line: 106

Prompt line: Repeat with CCGCAAAAGCAGGAUAUCGUAUCGGAAACGAUACGAGAAGGGUUUACAUGAGGAUCACCCAUGUUCCUUAGCGG [Mat - Exclusion 6 - Eli Mod - D101] (puzzle: Exclusion 6)
Response line: 28.7

Prompt line: Repeat with GUGAACGGAGGAUAUAUAUGGGCAGCAUACGCUGCAGCUUCACAUGAGGAUCACCCAUGUAGAAGGCUGUACAC [Mat - Exclusion 2 - Mod of Hyphema - D101] (puzzle: Exclusion 2)
Response line: 8.26

Prompt line: Repeat with GUGAUACAUGAGGAUCACCCAUGUCAGGAUAUGAUACUAUGUACUUCGGUACAUAGUAUCAGAAGGGACAGUGA [Ex1-3: 4] (puzzle: Exclusion 1)
Response line: 125

Prompt line: Repeat with ACAAGCUUUUUGCUCGUCGAGUAGAAACGUGAGAGCGAGACAUGAGGAUCACCCAUGUAAAGGCAGUAGGUGGAGAU [JR_SV3TOV2_Sub025] (puzzle: Sensor v3, turn-off variant 2)
Response line: 43.2

Prompt line: Repeat with CUUUUGUGAGGAUAUCAGUAGUAAAUAAAUAUAAUUACUACUGAGAAGGCACAUGAGGAUCACCCAUGUUCCUC [salish99_ex3_r3_082] (puzzle: Exclusion 4)
Response line: 38.2

Prompt line: Repeat with CUUCUCAGAGUCAGGAUAUAGUCGAAAGGGCUAGACUAGAAGGGACAUGAGGAUCACCCAUGUAAAAUAUCAAA [Razalequ] (puzzle: Brourd's mod of Exclusion 4)
Response line: 20.4
